- System Name: HA of Influenza H1N1 (A/Neth/602/2009), on infected MDCK cells or on virus (Influenza A virus H1N1 A/Neth/602/2009 (host Human))
- Protocol Text: cell-based or functional assay
This listing pairs binders with measured IC50, in vitro virus neutralization on MDCK cells.

Binder	Reading
AT10-003 (antibody, V domains shown) VH: QVHLVQSGAEVRKPGASVKVSCKVSGYTLNELSIHWLRQAPGRGLEWMGSFDPEDGETIYAQKFQGRVTMTGDTSTDTAYLELTSLRSEDTALYYCARGWGAVTSPFDFWGQGTLVTVSS VL: DIVMTQSPLSLPVTPGEPASISCRSSQSLLHSNGHIYFDWYLQKPGQSPQLLIYLVSKRASGVPDRFSGSGSGTDFTLKISRVEAEDVGVYYCMQALETPFTFGPGTKVHIKR	> 15 µg/mL
AT10-002 (antibody, V domains shown) VH: QLQLQESGPRLVKPSETLSLTCSVSGVSISSSNYYWGWIRQPPGKGLEWIGTIYHSGSTYYNPSLKSRLIISVDTSKNQFYLQLTSLTAADSAVYYCATGGGFGWSQTYFGYWGQGTLVTASS VL: QSALTQPASVSGSPGQSITISCTGTSSDVGAYNYVSWYQHHPGKAPKLMIYDVTYRPSGVSTRFSGSKSGNTASLTISGLQAEDEADYYCSSQSRSSTLVIFGGGTKLTVLG	> 15 µg/mL
AT10-001 (antibody, V domains shown) VH: EVQLLESGGGLVQPGGSLRLSCAASGFSFSTYAMSWVRQAPGKGLEWVSGISGSGESTYYADSVKGRFTVSRDNSKNTLYLQMNSLRAEDTAVYYCAKQGDHIAWLLRGINFDYWGQGVLVTVSS VL: EIVLTQSPGTLSLSPGERATLSCRASQSVSSSYLAWYQQKPGQAPRLLIYGASTRATGIPDRFSGRGSGTDFTLTISSLEPEDFAVYYCQNYGSPFLFTFGPGTKVDIKR	> 15 µg/mL

Request: State the recorded IC50, in vitro virus neutralization on MDCK cells for this entry: AT10-004 (antibody, V domains shown) VH: QVQLVQSGAEVRKPGASVKVSCKASGYTFTRHGISWVRQAPGQGLEWMGWISAYTGDTDYAQKFQGRVTMTTDTSTNTAYMELRSLRSDDAAVYYCARLRLQGEVVVPPSQSNWFDPWGQGTLVTVSS VL: EIVLTQSPATLSLYPGERATLSCRASQSVSRYLAWYQQKPGQAPRLLIYDASNRATGIPARFSGSGSGTDFTLTISSLEPEDFAVYYCQQRSNWLKITFGQGTRLEIKG
Response: > 15 µg/mL
